assayed.system: Metabotropic glutamate receptor 3 (Homo sapiens)
Sequence (Q14832 whole entry): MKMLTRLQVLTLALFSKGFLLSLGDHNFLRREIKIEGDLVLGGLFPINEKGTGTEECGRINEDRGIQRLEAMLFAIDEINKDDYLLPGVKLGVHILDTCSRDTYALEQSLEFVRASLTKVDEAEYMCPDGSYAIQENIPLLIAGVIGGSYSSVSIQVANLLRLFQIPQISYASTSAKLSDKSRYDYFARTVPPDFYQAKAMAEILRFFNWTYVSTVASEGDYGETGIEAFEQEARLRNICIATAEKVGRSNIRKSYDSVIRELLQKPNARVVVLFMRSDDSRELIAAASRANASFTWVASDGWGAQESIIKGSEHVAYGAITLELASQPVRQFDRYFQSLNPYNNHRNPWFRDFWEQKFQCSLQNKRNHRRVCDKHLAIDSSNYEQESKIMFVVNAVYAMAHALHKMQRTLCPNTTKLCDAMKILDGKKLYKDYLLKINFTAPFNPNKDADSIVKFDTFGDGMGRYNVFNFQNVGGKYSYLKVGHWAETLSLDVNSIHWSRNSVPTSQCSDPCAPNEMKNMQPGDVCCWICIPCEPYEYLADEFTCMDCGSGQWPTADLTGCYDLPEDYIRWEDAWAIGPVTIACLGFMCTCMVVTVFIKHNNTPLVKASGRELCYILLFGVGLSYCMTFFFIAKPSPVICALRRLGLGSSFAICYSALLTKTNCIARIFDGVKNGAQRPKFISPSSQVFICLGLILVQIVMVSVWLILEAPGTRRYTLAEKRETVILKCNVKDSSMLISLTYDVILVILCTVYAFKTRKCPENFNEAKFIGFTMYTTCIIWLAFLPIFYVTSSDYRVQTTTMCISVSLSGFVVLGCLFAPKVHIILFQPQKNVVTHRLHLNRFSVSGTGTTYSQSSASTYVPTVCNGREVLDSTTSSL
method.notes: Negative allosteric modulation at mGluR3 (unknown origin)

smi	IC50 / nM
O=C1N(c2ccc(F)cc2)CCc2nc(COc3ccccc3)cn21	290
O=c1n(-c2ccc(F)cc2)ccc2nc(COc3ccccc3)cn12	630

----------
method.notes: Cmax in rat brain at 1 mg/kg, iv and 10 mg/kg, po
Format: ADME, organism-based

smi	Cmax
O=C1N(c2ccc(F)cc2)CCc2nc(COc3ccccc3)cn21	6.05 µM

----------
Recorded measurements of pEC50, one per entry
assayed.system: UniProt:O15303
Sequence (O15303 whole entry): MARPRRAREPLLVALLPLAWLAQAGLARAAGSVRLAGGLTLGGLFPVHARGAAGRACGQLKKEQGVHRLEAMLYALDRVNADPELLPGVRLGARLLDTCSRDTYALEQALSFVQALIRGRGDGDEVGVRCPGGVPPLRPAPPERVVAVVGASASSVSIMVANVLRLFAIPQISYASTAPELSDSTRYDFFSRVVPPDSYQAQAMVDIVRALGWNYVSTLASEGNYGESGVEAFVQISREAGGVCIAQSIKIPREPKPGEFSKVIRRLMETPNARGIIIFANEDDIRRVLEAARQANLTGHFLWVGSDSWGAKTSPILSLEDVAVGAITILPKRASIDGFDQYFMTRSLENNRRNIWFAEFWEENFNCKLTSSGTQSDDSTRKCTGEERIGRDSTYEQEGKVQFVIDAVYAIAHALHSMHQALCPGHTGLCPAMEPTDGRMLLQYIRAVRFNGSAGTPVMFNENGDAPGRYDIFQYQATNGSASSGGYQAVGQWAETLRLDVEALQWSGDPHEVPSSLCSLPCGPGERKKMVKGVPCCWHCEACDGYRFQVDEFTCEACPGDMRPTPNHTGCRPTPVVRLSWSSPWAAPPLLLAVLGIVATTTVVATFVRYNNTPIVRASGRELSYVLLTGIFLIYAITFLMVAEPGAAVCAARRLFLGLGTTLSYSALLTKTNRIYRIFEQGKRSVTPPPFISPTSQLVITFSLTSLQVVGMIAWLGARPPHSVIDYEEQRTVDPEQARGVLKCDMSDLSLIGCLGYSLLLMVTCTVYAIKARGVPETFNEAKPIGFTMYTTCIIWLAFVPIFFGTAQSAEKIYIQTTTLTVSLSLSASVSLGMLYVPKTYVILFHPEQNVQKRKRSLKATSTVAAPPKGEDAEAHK
method.notes: Positive allosteric modulation at mGluR6 (unknown origin)
pEC50: −log10 of the molar value.

smi	pEC50
O=c1n(-c2ccc(F)cc2)ccc2nc(COc3ccccc3)cn12	< 5.00
O=C1N(c2ccc(F)cc2)CCc2nc(COc3ccccc3)cn21	< 5.00

These entries and their values trace back to ChEMBL document CHEMBL3399974.
